# assay-info: Clearance in iv dosed rat
# Format: ADME, organism-based
# experimental-context: in vivo
endpoint-label: clearance (L/h/kg)
Give just the number in L/h/kg; leave the unit off.

CC(C)n1c(=O)n(C(=O)NCC2CCN(CC3(O)CCOCC3)CC2)c2cc(F)ccc21; 0.756

GET /values?readout=clearance&item= OC1(CN2CCC(COc3noc4cccc(O[C@@H]5CCOC5)c34)CC2)CCOCC1
4.91

GET /values?readout=clearance&item= CC1(C)C(=O)N(C(=O)NCC2CCN(CC3(O)CCOCC3)CC2)c2cc(F)ccc21
6.27

====

Entries annotated with measured pEC50
# measured-on: UniProtKB Q13639
# Sequence (Q13639 whole entry): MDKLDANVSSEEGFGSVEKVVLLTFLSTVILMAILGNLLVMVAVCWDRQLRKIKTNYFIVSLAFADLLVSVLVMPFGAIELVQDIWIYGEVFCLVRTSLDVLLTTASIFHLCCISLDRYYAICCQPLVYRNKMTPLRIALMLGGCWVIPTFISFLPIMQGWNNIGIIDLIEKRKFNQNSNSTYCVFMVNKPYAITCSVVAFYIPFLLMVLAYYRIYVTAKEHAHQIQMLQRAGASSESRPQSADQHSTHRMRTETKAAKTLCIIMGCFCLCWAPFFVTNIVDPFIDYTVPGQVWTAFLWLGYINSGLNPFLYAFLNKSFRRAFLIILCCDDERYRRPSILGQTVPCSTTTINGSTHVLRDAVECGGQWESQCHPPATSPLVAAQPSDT
Just the number, please; pEC50 means minus log10 of the concentration in mol/L.

CC1(C)C(=O)N(C(=O)NCC2CCN(CC3(O)CCOCC3)CC2)c2cc(F)ccc21; 8.92

GET /values?readout=pEC50&item= CC(C)n1c(=O)n(C(=O)NCC2CCN(CC3(O)CCOCC3)CC2)c2cc(F)ccc21
9.01
